experiment_description: Volume of distribution was determined in Sprague Dawley rats
Assay type: ADME, organism-based
setup_conditions: rat, in vivo
observable: Vd (L/kg)

COC(=O)C1CCCCC1c1ccc(CNc2nccc(C)c2NC(=O)CC#N)cc1 (racemic)    0.38
Cc1noc([C@H]2CC=CC[C@@H]2c2ccc(CNc3nccc(C)c3NC(=O)CC#N)cc2)n1    0.47

[A] COC(=O)C1CC=CCC1c1ccc(CNc2nccc(C)c2NC(=O)CC#N)cc1 (racemic; trans)
[B] COC(=O)c1ccccc1-c1ccc(CNc2nccc(C)c2NC(=O)CC#N)cc1
[C] COC(=O)c1ccccc1N1CCC(O)(CNc2nccc(C)c2NC(=O)CC#N)CC1
// ascending sort on recorded Vd # respond with the labels, arranged in the requested order
C, B, A
(C: 0.24 L/kg, B: 0.36 L/kg, A: 0.55 L/kg)

---

experiment_description: Clearance in Sprague Dawley rats
Assay type: ADME, organism-based
setup_conditions: rat, in vivo
observable: clearance (mL/min/kg)

COC(=O)C1CC=CCC1c1ccc(CNc2nccc(C)c2NC(=O)CC#N)cc1 (racemic; trans)    29

[I] COC(=O)C1CCCCC1c1ccc(CNc2nccc(C)c2NC(=O)CC#N)cc1 (racemic)
[II] COC(=O)c1ccccc1-c1ccc(CNc2nccc(C)c2NC(=O)CC#N)cc1
[III] COC(=O)c1ccccc1N1CCC(O)(CNc2nccc(C)c2NC(=O)CC#N)CC1
[IV] Cc1noc([C@H]2CC=CC[C@@H]2c2ccc(CNc3nccc(C)c3NC(=O)CC#N)cc2)n1
Sequence the entries by clearance, beginning with the highest number. # respond with the labels, arranged in the requested order
I, IV, II, III

---

experiment_description: Half life in Sprague Dawley rats
Format: ADME
setup_conditions: rat, in vivo
observable: half-life (h)

Cc1noc([C@H]2CC=CC[C@@H]2c2ccc(CNc3nccc(C)c3NC(=O)CC#N)cc2)n1    1.2
COC(=O)c1ccccc1-c1ccc(CNc2nccc(C)c2NC(=O)CC#N)cc1    1.9
COC(=O)c1ccccc1N1CCC(O)(CNc2nccc(C)c2NC(=O)CC#N)CC1    3

[a] COC(=O)C1CCCCC1c1ccc(CNc2nccc(C)c2NC(=O)CC#N)cc1 (racemic)
[b] COC(=O)C1CC=CCC1c1ccc(CNc2nccc(C)c2NC(=O)CC#N)cc1 (racemic; trans)
From the recorded data, which exceeds the other in half-life: a or b ? Your answer should be the label attached to the chosen record.
b
(b: 1 h, a: 0.5 h)

---

experiment_description: Partition coefficient (logP)
setup_conditions: octanol/water
observable: logP

COC(=O)C1CC=CCC1c1ccc(CNc2nccc(C)c2NC(=O)CC#N)cc1 (single isomer, unassigned; (+))    2.3
COC(=O)C1CC=CCC1c1ccc(CNc2nccc(C)c2NC(=O)CC#N)cc1 (racemic; cis)    3.3
COC(=O)C1CC=CCC1c1ccc(CNc2nccc(C)c2NC(=O)CC#N)cc1 (stereo in doubt; (-)18)    2.4
COC(=O)C1C2C=CC(CC2)C1c1ccc(CNc2nccc(C)c2NC(=O)CC#N)cc1 (racemic; form 1)    3.1
COC(=O)C1C2CCC(CC2)C1c1ccc(CNc2nccc(C)c2NC(=O)CC#N)cc1 (racemic)    3.4

---

experiment_description: Bioavailability of compound upon oral administration of 10 mg/kg (dose) in Sprague Dawley rat
Assay type: ADME, organism-based
setup_conditions: in vivo
observable: bioavailability (%)

Cc1noc([C@H]2CC=CC[C@@H]2c2ccc(CNc3nccc(C)c3NC(=O)CC#N)cc2)n1    18
COC(=O)C1CCCCC1c1ccc(CNc2nccc(C)c2NC(=O)CC#N)cc1 (racemic)    4

[a] COC(=O)c1ccccc1-c1ccc(CNc2nccc(C)c2NC(=O)CC#N)cc1
[b] COC(=O)C1CC=CCC1c1ccc(CNc2nccc(C)c2NC(=O)CC#N)cc1 (racemic; trans)
From the recorded data, which exceeds the other in bioavailability: a or b ? Your answer should be the label attached to the chosen record.
a
(a: 18%, b: 5%)

---

experiment_description: Partition coefficient (logP)
setup_conditions: octanol/water, logP
observable: logP

Please review the following examples before continuing.
COC(=O)c1ccccc1N1CCC(C)(CNc2nccc(C)c2NC(=O)CC#N)CC1    2.6
COC(=O)C1CC=CCC1c1ccc(CNc2nccc(C)c2NC(=O)CC#N)cc1 (racemic; trans)    2.7
COC(=O)c1cccn1-c1ccc(CNc2nccc(C)c2NC(=O)CC#N)cc1    2.4
Cc1noc([C@H]2CC=CC[C@@H]2c2ccc(CNc3nccc(C)c3NC(=O)CC#N)cc2)n1    2.4
COC(=O)C1CCCCN1c1ccc(CNc2nccc(C)c2NC(=O)CC#N)cc1 (stereo unspecified)    2.7

[A] COC(=O)c1ccccc1N1CCC(CNc2nccc(C)c2NC(=O)CC#N)CC1
[B] COC(=O)C1=C(c2ccc(CNc3nccc(C)c3NC(=O)CC#N)cc2)CCCC1
Record comparison, field logP: mark the lower of A and B . Your answer should be the label attached to the chosen record.
A

---

experiment_description: Protein binding using 10% human serum
Assay type: ADME
setup_conditions: 10% human serum, read-out: Protein binding (converted)
observable: fraction unbound

[I] COC(=O)C1CC=CCC1c1ccc(CNc2nccc(C)c2NC(=O)CC#N)cc1 (racemic; trans)
[II] COC(=O)c1ccccc1N1CCC(C)(CNc2nccc(C)c2NC(=O)CC#N)CC1
[III] COC(=O)c1ccccc1N1CCC(CNc2nccc(C)c2NC(=O)CC#N)CC1
List the 3 compounds shown above, ordered by increasing fraction unbound. # respond with the labels, arranged in the requested order
I, III, II
(I: 0.04, III: 0.07, II: 0.1)

[I] COC(=O)c1ccccc1-c1ccc(CNc2nccc(C)c2NC(=O)CC#N)cc1
[II] COC(=O)C1CCCCC1c1ccc(CNc2nccc(C)c2NC(=O)CC#N)cc1 (racemic)
[III] COC(=O)C1CCCCN1c1ccc(CNc2nccc(C)c2NC(=O)CC#N)cc1 (stereo unspecified)
Sequence the entries by fraction unbound, beginning with the highest number. # respond with the labels, arranged in the requested order
III, II, I
(III: 0.22, II: 0.05, I: 0.01)

[a] COC(=O)C1=C(c2ccc(CNc3nccc(C)c3NC(=O)CC#N)cc2)CCCC1
[b] COC(=O)c1cccn1-c1ccc(CNc2nccc(C)c2NC(=O)CC#N)cc1
[c] Cc1noc([C@H]2CC=CC[C@@H]2c2ccc(CNc3nccc(C)c3NC(=O)CC#N)cc2)n1
[d] COC(=O)c1ccccc1C1=CCC(CNc2nccc(C)c2NC(=O)CC#N)CC1 (stereo unspecified)
Sequence the entries by fraction unbound, beginning with the highest number. # respond with the labels, arranged in the requested order
b, c, a, d

---

experiment_description: Partition coefficient (logP)
setup_conditions: octanol/water, logP
observable: logP

COC(=O)C1CCCCC1c1ccc(CNc2nccc(C)c2NC(=O)CC#N)cc1 (racemic)    2.7
COC(=O)c1ccccc1C1=CCC(CNc2nccc(C)c2NC(=O)CC#N)CC1 (centres undefined)    2.5
COC(=O)c1ccccc1-c1ccc(CNc2nccc(C)c2NC(=O)CC#N)cc1    2.5
COC(=O)c1ccccc1C1CCC(CNc2nccc(C)c2NC(=O)CC#N)CC1 (centres undefined)    2.7
